assay: pKa of dyes and complexes (fluorescence titration)
QUANTITY_KIND: pKa
# respond with the number and nothing more

// pKa lookup, molecule = `COCCOCCN(CCOCCOC)c1ccc(-c2c3ccc(=[N+](CCOCCOC)CCOCCOC)cc-3oc3cc(N(CCOCCOC)CCOCCOC)ccc23)c([O-])c1` , result: 2.3

Recorded values, source patent US8101655B2.
